Target entity: ΔF508-CFTR (Homo sapiens (Human), UniProt P13569, DEL508-508)
Sequence (P13569 other isoform, or with tags, fused parts or gaps del F508-F508): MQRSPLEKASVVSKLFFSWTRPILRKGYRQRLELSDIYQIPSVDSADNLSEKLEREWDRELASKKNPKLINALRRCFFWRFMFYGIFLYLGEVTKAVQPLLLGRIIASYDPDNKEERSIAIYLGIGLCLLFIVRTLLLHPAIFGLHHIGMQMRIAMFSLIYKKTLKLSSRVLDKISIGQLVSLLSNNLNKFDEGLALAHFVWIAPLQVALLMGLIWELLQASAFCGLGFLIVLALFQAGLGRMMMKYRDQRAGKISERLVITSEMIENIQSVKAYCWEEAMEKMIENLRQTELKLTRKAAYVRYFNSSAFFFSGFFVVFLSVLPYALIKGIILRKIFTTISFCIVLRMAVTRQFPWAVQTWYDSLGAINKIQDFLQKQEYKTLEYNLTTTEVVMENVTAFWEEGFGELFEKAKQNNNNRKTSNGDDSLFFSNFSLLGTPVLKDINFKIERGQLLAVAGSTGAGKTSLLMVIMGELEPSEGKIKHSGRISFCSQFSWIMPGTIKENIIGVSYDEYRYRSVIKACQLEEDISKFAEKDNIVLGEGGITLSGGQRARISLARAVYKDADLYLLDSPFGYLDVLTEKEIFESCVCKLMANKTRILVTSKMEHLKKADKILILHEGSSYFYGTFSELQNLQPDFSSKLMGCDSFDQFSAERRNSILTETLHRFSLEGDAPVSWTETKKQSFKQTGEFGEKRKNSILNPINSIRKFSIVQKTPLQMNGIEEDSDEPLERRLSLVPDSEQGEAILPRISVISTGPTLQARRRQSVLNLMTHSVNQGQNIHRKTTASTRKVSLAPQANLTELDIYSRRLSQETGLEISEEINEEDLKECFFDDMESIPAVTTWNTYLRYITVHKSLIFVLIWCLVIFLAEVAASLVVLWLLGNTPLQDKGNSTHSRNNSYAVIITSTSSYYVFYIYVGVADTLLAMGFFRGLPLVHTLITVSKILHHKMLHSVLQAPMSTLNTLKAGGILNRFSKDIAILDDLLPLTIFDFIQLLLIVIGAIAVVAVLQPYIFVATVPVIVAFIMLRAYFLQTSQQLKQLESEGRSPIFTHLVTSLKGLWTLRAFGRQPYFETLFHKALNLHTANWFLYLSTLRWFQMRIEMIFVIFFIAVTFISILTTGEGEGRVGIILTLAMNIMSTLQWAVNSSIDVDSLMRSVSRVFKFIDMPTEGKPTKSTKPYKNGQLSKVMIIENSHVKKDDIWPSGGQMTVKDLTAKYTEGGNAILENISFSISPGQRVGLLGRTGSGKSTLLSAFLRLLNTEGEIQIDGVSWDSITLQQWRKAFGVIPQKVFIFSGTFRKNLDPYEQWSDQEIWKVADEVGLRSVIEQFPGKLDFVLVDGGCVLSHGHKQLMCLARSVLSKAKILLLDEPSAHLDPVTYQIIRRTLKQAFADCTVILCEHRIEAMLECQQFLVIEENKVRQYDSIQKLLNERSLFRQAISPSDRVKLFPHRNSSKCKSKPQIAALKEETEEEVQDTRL
Assay info: CFTR potentiator assays (membrane potential, IonWorks Quattro, Ussing chamber ion transport); patent does not say which gave the EC50
Assay type: cell-based
Settings: data measurements described above; read-out: CFTR EC50
From the text: CFTR activity can be quantified by measuring the transmembrane potential. The means for measuring the transmembrane potential in a biological system can employ a number of methods including electrophysiological and optical fluorescence-based membrane potential assays. […] CFTR activity can also be quantified electrophysiologically using the whole-cell configuration of the patch clamp technique (Hamill et al Pflugers Acrhive 1981). […]
Measurement kind: EC50

Challenge: Write down the reported EC50 (system: ΔF508-CFTR (Homo sapiens (Human), UniProt P13569, DEL508-508)) of CN1CCN(C(=O)c2nc(Br)c(C(F)(F)F)nc2N)CC1c1ccccc1 (centres unmarked)
Response given: > 5 µM

Challenge: For ΔF508-CFTR (Homo sapiens (Human), UniProt P13569, DEL508-508), give EC50 of the listed compound: Cc1cc(C(N)=O)ccc1-c1nc(C(=O)NCC(=O)c2ccc(F)cc2)c(N)cc1C(F)(F)F
Response given: > 5 µM

Challenge: State EC50 on ΔF508-CFTR (Homo sapiens (Human), UniProt P13569, DEL508-508). Entry: CC(O)(CNC(=O)c1nc(O)c(C(F)(F)F)cc1N)C(F)(F)F (centres unmarked)
Response given: > 5 µM

Challenge: State EC50 on ΔF508-CFTR (Homo sapiens (Human), UniProt P13569, DEL508-508). Entry: Nc1nc(C(F)(F)F)c(Br)nc1C(=O)NCc1cn2ccccc2n1
Response given: > 5 µM

Challenge: Give EC50 for CNc1cc(C(F)(F)F)c(Br)nc1C(=O)NCC(C)(O)C(F)(F)F (centres unmarked) tested on ΔF508-CFTR (Homo sapiens (Human), UniProt P13569, DEL508-508).
Response given: > 5 µM

----------
Provide the recorded pEC50 for the entries that follow.
Target entity: ΔF508-CFTR (Homo sapiens (Human), UniProt P13569, DEL508-508)
Assay info: CFTR potentiator assays (membrane potential, IonWorks Quattro, Ussing chamber ion transport); patent does not say which gave the EC50
Format: cell-based
Settings: Table 1, representative compounds; data measurements described above; read-out: EC50
pEC50 is defined as minus the log10 of a concentration measured in mol/L.

Challenge: Report pEC50, nothing else, for this compound: COc1nc(C(=O)NC[C@@](C)(O)C(F)(F)F)c(N)cc1C(F)(F)F
Response given: 6.37

Challenge: Supply measured pEC50 of CC(O)(CNC(=O)c1nc(-c2ccc(Cl)cc2Cl)c(C(F)(F)F)cc1N)C(F)(F)F (single isomer, unassigned) [Example 10] in your reply.
Response given: 6.95

Challenge: Please report pEC50 for the following compound: CC(O)(CNC(=O)c1nc(-c2ccc(Cl)cc2Cl)c(C(F)(F)F)cc1N)C(F)(F)F (single isomer, unassigned) [Example 9]
Response given: 7.05

Challenge: Note pEC50 for the compound shown: COc1nc(C(=O)NC[C@](C)(O)C(F)(F)F)c(N)cc1C(F)(F)F
Response given: 7.30

----------
Give pEC50 for every item shown.
Target entity: ΔF508-CFTR (Homo sapiens (Human), UniProt P13569, DEL508-508)
Assay info: CFTR potentiator assays (membrane potential, IonWorks Quattro, Ussing chamber ion transport); patent does not say which gave the EC50
Format: cell-based
Settings: data measurements described above; read-out: CFTR EC50
pEC50: −log10 of the molar value.

Challenge: Param request: pEC50 | system ΔF508-CFTR (Homo sapiens (Human), UniProt P13569, DEL508-508) | item Cn1cncc1CNC(=O)c1nc(Br)c(C(F)(F)F)nc1N
Response given: < 5.30

Challenge: Using ΔF508-CFTR (Homo sapiens (Human), UniProt P13569, DEL508-508) as the test system, report measured pEC50 of CN(C)CCCOc1ccc(-c2nc(C(=O)NCC(=O)c3ccc(F)cc3)c(N)nc2C(F)(F)F)cn1 .
Response given: < 5.30

Challenge: Give pEC50 for Cn1cnc(CNC(=O)c2nc(Br)c(C(F)(F)F)nc2N)c1 tested on ΔF508-CFTR (Homo sapiens (Human), UniProt P13569, DEL508-508).
Response given: < 5.30

Challenge: # lookup: ΔF508-CFTR (Homo sapiens (Human), UniProt P13569, DEL508-508) pEC50, key = CN(Cc1ccccc1)C(=O)c1nc(Br)c(C(F)(F)F)nc1N
Response given: < 5.30

Challenge: Fill in pEC50 for Cc1ccc(-c2nc(C(=O)NCC(=O)c3ccc(F)cc3)c(N)cc2C(F)(F)F)cc1C tested with ΔF508-CFTR (Homo sapiens (Human), UniProt P13569, DEL508-508).
Response given: < 5.30

Challenge: GET pEC50 where system = ΔF508-CFTR (Homo sapiens (Human), UniProt P13569, DEL508-508) and item = CN1CCN[C@H](CNC(=O)c2nc(Br)c(C(F)(F)F)nc2N)C1
Response given: < 5.30

Challenge: Report the value of pEC50 obtained on ΔF508-CFTR (Homo sapiens (Human), UniProt P13569, DEL508-508) for Nc1nc(C(F)(F)F)c(Br)nc1C(=O)NCCc1cccnc1 .
Response given: < 5.30

Challenge: Give pEC50 for this entry on ΔF508-CFTR (Homo sapiens (Human), UniProt P13569, DEL508-508): Nc1nc(C(F)(F)F)c(Br)nc1C(=O)NCCc1ccncc1
Response given: < 5.30

Challenge: Provide pEC50, recorded with ΔF508-CFTR (Homo sapiens (Human), UniProt P13569, DEL508-508), of CC(C)CN(C)C(=O)c1nc(Br)c(C(F)(F)F)nc1N
Response given: < 5.30

Challenge: Report pEC50 on ΔF508-CFTR (Homo sapiens (Human), UniProt P13569, DEL508-508) for this entry: CN(C)S(=O)(=O)c1cccc(-c2nc(C(=O)NCC(=O)c3ccc(F)cc3)c(N)cc2C(F)(F)F)c1
Response given: < 5.30

Challenge: State pEC50 on ΔF508-CFTR (Homo sapiens (Human), UniProt P13569, DEL508-508). Entry: Cn1ccnc1CNC(=O)c1nc(Br)c(C(F)(F)F)nc1N
Response given: < 5.30

Challenge: Specify pEC50 for Cc1ccc(C)n1-c1cc(C(F)(F)F)c(On2nnc3cccnc32)nc1C(=O)NCC(C)(O)C(F)(F)F (centres unmarked) , system ΔF508-CFTR (Homo sapiens (Human), UniProt P13569, DEL508-508).
Response given: < 5.30

Challenge: Provide pEC50, recorded with ΔF508-CFTR (Homo sapiens (Human), UniProt P13569, DEL508-508), of Cn1ccc(CNC(=O)c2nc(Br)c(C(F)(F)F)nc2N)n1
Response given: < 5.30

Challenge: Return reported pEC50 for target or system ΔF508-CFTR (Homo sapiens (Human), UniProt P13569, DEL508-508), item Nc1cc(C(F)(F)F)c(-c2ccc3c(c2)CCNC3=O)nc1C(=O)NCC(=O)c1ccc(F)cc1 .
Response given: < 5.30

src = patent US10117858B2
